Entries and their TGI
Tested on: SK-MEL-2 melanoma
assay-overview: NCI tumour cell line growth inhibition, 48 h

Find the recorded TGI belonging to COC(=O)[C@@]1(Cc2ccc(OC(C)=O)cc2)Cc2cc3ccccc3n2N1 and report it. 52.2 µM

TGI for O=C1NC(=O)/C(=C/c2ccc3nccc(-c4ccncc4)c3c2)S1 ? 2.25 µM

Quick one: TGI of COc1ccc(CC2OC3(CCCCC3)CC3CCCCN32)cc1 (stereo unspecified) ? > 100 µM

What value of TGI has been recorded for this entry: CCN(CC(O)COc1ccc2c(c1)[n+]([O-])nc(N)[n+]2[O-])C(C)=O (stereo unspecified) > 100 µM

Look up TGI: O=S1(=O)CC#CC[C@@H](CO)[C@@H](CO)CC#CC1 > 100 µM

I'd like to know its TGI. The molecule in question is O=[N+]([O-])c1ccc(NC(c2ccccc2)c2ccc3cccnc3c2O)cc1 (stereo unspecified) > 100 µM

State the recorded TGI for this entry: CC1=NN(c2ccccc2)C(=O)C1N=Nc1ccc(Br)cc1C (stereo unspecified) > 100 µM

Given the molecule O=C1C2Cc3ccccc3CN2C(=O)N1CN1CCCCC1 (stereo unspecified) , what is its reported TGI? > 100 µM

Looking for the measured TGI of C/C(COc1ccccc1)=N\NC(N)=S , can you help? > 100 µM

What value of TGI has been recorded for this entry: COc1cc2cc(C(=O)Nc3ccccc3)c(N)nc2cc1OC > 100 µM

// lookup TGI for Cn1c(SCc2ccc([N+](=O)[O-])cc2)nnc1C12CC3CC(CC(C3)C1)C2 > 10 µM
